Hi there, I'd appreciate the recorded pIC50 for every entry that follows.
- TARGET SYSTEM: T1, recombinant human VEGF165 (human, UniProt P15692-4 27-191)
- T1 construct: also called hVEGF165; rhVEGF165
- T1 sequence (P15692 other isoform, or with tags, fused parts or gaps limits assumed): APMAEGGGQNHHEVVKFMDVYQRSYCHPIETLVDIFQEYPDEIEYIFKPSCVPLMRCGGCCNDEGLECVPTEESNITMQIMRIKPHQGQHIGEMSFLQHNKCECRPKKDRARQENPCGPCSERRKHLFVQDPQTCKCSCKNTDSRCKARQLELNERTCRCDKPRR
- EXPERIMENT: VEGF165/hVEGFR1-Fc competition AlphaScreen
// pIC50: -log10(molar conc.)

In: If you can, please state the reported pIC50 value of VEGFBII010 (VHH, bivalent VHH in one chain; also called VEGFBII23B04-35GS-23B04; homodimeric VEGFBII23B04) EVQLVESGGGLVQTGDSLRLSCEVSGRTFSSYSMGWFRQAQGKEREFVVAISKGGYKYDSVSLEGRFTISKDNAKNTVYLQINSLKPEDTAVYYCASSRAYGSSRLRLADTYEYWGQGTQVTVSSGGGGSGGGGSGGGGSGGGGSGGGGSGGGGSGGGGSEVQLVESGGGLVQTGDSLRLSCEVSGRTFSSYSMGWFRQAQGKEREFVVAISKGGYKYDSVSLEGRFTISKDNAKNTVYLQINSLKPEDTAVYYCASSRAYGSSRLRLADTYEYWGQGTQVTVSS .
Out: 10.68

In: If you can, please state the reported pIC50 value of VEGFBII022 (VHH, biparatopic bivalent VHH in one chain; also called VEGFBII23B04-9GS-5B05) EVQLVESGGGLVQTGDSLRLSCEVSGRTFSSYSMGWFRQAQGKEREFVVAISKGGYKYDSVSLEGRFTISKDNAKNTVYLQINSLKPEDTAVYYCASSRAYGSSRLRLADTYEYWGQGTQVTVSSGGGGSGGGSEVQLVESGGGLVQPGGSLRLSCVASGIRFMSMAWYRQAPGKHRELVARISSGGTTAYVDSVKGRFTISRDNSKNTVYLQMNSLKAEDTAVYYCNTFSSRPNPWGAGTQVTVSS .
Out: 11.05

In: If you can, please state the reported pIC50 value of VEGFBII024 (VHH, biparatopic bivalent VHH in one chain; also called VEGFBII23B04-40GS-86H09; VEGFBI024) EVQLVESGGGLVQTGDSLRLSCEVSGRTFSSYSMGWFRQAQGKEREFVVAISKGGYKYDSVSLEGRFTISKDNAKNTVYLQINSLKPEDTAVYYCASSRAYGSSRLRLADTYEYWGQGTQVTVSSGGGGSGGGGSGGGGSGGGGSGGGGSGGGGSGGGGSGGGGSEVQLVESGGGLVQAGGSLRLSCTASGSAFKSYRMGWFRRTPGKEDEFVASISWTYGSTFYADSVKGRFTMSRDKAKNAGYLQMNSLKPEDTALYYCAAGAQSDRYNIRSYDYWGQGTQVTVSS .
Out: 10.16

In: If you can, please state the reported pIC50 value of VEGFBII023 (VHH, biparatopic bivalent VHH in one chain; also called VEGFBII23B04-40GS-10E07; VEGFBI023) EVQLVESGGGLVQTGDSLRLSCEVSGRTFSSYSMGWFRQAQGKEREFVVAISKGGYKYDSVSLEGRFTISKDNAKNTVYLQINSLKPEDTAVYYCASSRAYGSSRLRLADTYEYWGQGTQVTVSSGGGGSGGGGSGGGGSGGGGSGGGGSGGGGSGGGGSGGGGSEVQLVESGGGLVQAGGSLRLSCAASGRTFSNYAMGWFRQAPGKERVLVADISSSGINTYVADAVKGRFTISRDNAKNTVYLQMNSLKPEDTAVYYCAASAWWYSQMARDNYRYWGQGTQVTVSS .
Out: 10.32
